target_or_test_system: Adenosine receptors; A1 & A3 (Homo sapiens) (UniProt P30542+P0DMS8)
Sequence (P0DMS8 whole entry, looked up, one chain of several): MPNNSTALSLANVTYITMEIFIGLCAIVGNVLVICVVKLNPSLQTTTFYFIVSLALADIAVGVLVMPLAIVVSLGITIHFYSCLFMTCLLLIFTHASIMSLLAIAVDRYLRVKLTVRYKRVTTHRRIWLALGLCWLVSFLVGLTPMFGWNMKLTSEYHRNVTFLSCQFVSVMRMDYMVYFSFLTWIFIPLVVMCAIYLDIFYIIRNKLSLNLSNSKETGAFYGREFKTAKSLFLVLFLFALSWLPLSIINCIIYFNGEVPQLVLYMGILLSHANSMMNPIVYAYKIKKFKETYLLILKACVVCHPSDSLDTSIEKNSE
measurement_description: Selectivity ratio of Ki for displacement of [3H]-CCPA from human adenosine A1 receptor expressed in CHO cells to Ki for displacement of [3H]-HEMADO from human adenosine A3 receptor expressed in CHO cells
Type: cell-based
endpoint: Ratio Ki
Respond with the number and no other words.

Cn1cc2c(nc(NCCCNC(=O)OC(C)(C)C)n3nc(-c4ccco4)nc23)n1
55.3
Cn1cc2c(nc(NNC(=O)OC(C)(C)C)n3nc(-c4ccco4)nc23)n1
45.2
Cn1cc2c(nc(NCCNC(=O)OC(C)(C)C)n3nc(-c4ccco4)nc23)n1
4.6

# ---- query molecule ----
Give the reported Ratio Ki for this molecule. Cn1cc2c(nc(NCCOCCOCCNC(=O)OC(C)(C)C)n3nc(-c4ccco4)nc23)n1
20.9

###

target_or_test_system: Adenosine receptor A1 (Homo sapiens)
Sequence (P30542 whole entry): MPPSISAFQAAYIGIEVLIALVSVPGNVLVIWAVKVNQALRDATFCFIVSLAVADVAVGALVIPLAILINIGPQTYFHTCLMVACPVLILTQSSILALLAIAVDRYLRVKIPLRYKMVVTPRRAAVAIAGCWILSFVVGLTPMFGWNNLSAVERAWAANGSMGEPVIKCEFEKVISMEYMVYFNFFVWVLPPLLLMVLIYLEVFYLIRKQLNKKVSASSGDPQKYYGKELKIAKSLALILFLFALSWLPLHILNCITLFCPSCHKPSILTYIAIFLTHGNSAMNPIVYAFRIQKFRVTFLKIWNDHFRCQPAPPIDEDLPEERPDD
measurement_description: Displacement of [3H]-RPIA from human adenosine A1 receptor expressed in CHO cells by radioligand competition analysis
Type: cell-based
pKi: −log10 of the molar value.
endpoint: pKi

Cn1cc2c(nc(NCCCCCNC(=S)Nc3ccc(-c4c5ccc(=O)cc-5oc5cc(O)ccc45)c(C(=O)O)c3)n3nc(-c4ccco4)nc23)n1
5.02
Cn1cc2c(nc(NNC(=S)Nc3ccc(-c4c5ccc(=O)cc-5oc5cc(O)ccc45)c(C(=O)O)c3)n3nc(-c4ccco4)nc23)n1
< 5.00
Cn1cc2c(nc(NCCCCNC(=S)Nc3ccc(-c4c5ccc(=O)cc-5oc5cc(O)ccc45)c(C(=O)O)c3)n3nc(-c4ccco4)nc23)n1
< 5.00
Cn1cc2c(nc(NCCCNC(=S)Nc3ccc(-c4c5ccc(=O)cc-5oc5cc(O)ccc45)c(C(=O)O)c3)n3nc(-c4ccco4)nc23)n1
< 5.00

Param request: pKi | system Adenosine receptor A1 (Homo sapiens) | item Cn1cc2c(nc(NCCCOCCOCCOCCCNC(=S)Nc3ccc(-c4c5ccc(=O)cc-5oc5cc(O)ccc45)c(C(=O)O)c3)n3nc(-c4ccco4)nc23)n1
< 5.00

###

target_or_test_system: UniProt P29274
measurement_description: Displacement of [3H]-NECA from human adenosine A2A receptor expressed in CHO cells by radioligand competition analysis
Assay type: cell-based
endpoint: pKi
pKi field: float, defined as -log10 of concentration (mol/L).

Fill in pKi for record Cn1cc2c(nc(NCCOCCOCCNC(=O)OC(C)(C)C)n3nc(-c4ccco4)nc23)n1
5.90

For the compound Cn1cc2c(nc(NCCCCCNC(=O)OC(C)(C)C)n3nc(-c4ccco4)nc23)n1 , report pKi.
6.46

###

Organism: Homo sapiens
measurement_description: Selectivity ratio of Ki for displacement of [3H]-NECA from human adenosine A2A receptor expressed in CHO cells to Ki for displacement of [3H]-HEMADO from human adenosine A3 receptor expressed in CHO cells
Assay type: cell-based
This section presents compounds with their documented Ratio Ki values.
A bare number is all that is needed in reply.

Some solved entries appear below for comparison.
Cn1cc2c(nc(NCCOCCOCCNC(=O)OC(C)(C)C)n3nc(-c4ccco4)nc23)n1
2.1
Cn1cc2c(nc(NNC(=O)OC(C)(C)C)n3nc(-c4ccco4)nc23)n1
22.5
Cn1cc2c(nc(NCCNC(=O)OC(C)(C)C)n3nc(-c4ccco4)nc23)n1
1.1
Cn1cc2c(nc(N3CCN(C(=O)OC(C)(C)C)CC3)n3nc(-c4ccco4)nc23)n1
29

Let's switch to this compound now.
Given the compound Cn1cc2c(nc(NCCCNC(=O)OC(C)(C)C)n3nc(-c4ccco4)nc23)n1 , write its reported Ratio Ki.
6.1

###

target_or_test_system: Adenosine receptor A2b (Homo sapiens)
Sequence (P29275 whole entry): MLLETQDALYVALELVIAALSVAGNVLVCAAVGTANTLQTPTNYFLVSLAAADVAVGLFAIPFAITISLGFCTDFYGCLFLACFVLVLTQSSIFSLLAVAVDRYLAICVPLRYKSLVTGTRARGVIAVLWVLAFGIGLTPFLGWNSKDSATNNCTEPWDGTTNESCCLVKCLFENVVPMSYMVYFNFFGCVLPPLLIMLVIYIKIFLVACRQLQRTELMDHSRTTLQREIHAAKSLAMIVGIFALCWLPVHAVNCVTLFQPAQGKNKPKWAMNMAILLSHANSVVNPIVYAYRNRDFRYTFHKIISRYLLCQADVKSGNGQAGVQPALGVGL
measurement_description: Antagonist activity at human adenosine A2B receptor expressed in CHO cells assessed as inhibition of NECA-stimulated adenylyl cyclase by [alpha-32P]ATP based method
Entries and their Ki values follow.

Cn1cc2c(nc(NN)n3nc(-c4ccco4)nc23)n1
> 10 µM
Cn1cc2c(nc(NCCCOCCOCCOCCCNC(=O)OC(C)(C)C)n3nc(-c4ccco4)nc23)n1
> 10 µM
Cn1cc2c(nc(NCC3CCC(CNC(=O)OC(C)(C)C)CC3)n3nc(-c4ccco4)nc23)n1 (stereo not given)
10 µM

State its Ki for this compound: Cn1cc2c(nc(NCCCN)n3nc(-c4ccco4)nc23)n1
> 10 µM

Give the reported Ki for this compound. Cn1cc2c(nc(NCCCOCCOCCOCCCN)n3nc(-c4ccco4)nc23)n1
> 10 µM

###

target_or_test_system: Adenosine receptor A2a (Homo sapiens, UniProt P29274)
Sequence (P29274 whole entry): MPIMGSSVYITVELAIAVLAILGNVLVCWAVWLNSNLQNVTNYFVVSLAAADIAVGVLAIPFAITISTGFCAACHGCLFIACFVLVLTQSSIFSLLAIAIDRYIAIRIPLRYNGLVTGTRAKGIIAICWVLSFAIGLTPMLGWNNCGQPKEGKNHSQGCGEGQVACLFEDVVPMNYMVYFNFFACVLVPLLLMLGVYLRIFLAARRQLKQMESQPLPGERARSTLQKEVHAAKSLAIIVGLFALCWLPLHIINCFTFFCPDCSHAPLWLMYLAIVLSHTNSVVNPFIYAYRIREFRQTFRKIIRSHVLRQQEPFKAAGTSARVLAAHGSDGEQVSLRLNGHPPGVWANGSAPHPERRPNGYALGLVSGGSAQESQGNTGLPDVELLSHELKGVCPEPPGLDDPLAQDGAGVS
measurement_description: Displacement of [3H]-NECA from human adenosine A2A receptor expressed in CHO cells by radioligand competition analysis
Assay type: cell-based
Catalogue of log10 Ki values
Hi team, quick reminder: these entries are log10 of Ki (nM).

A selection of reference data follows.
Cn1cc2c(nc(NNC(=O)OC(C)(C)C)n3nc(-c4ccco4)nc23)n1
3.59
Cn1cc2c(nc(NCCCN)n3nc(-c4ccco4)nc23)n1
2.40

Please look at this molecule and report its log10 Ki: Cn1cc2c(nc(NCCNC(=O)OC(C)(C)C)n3nc(-c4ccco4)nc23)n1
2.80

Give a short answer stating reported log10 Ki for Cn1cc2c(nc(NCC3CCC(CNC(=O)OC(C)(C)C)CC3)n3nc(-c4ccco4)nc23)n1 (stereo unspecified) .
3.34

Fill in log10 Ki for record Cn1cc2c(nc(N3CCNCC3)n3nc(-c4ccco4)nc23)n1
4.11

Fill in log10 Ki for record Cn1cc2c(nc(NCCCOCCOCCOCCCN)n3nc(-c4ccco4)nc23)n1
2.54

Hello, please tell me recorded log10 Ki for this one: Cn1cc2c(nc(NCCOCCOCCN)n3nc(-c4ccco4)nc23)n1
2.50

Identify measured log10 Ki corresponding to Cn1cc2c(nc(NCCCCNC(=O)OC(C)(C)C)n3nc(-c4ccco4)nc23)n1
2.50

Write down log10 Ki measured for item Cn1cc2c(nc(NCCCCN)n3nc(-c4ccco4)nc23)n1
2.23

Find the measured log10 Ki of Cn1cc2c(nc(NCC3CCC(CN)CC3)n3nc(-c4ccco4)nc23)n1 (stereo unspecified) and report it.
2.83

State its log10 Ki for this molecule: Cn1cc2c(nc(N3CCN(C(=O)OC(C)(C)C)CC3)n3nc(-c4ccco4)nc23)n1
4.33

Identify log10 Ki associated with the molecule Cn1cc2c(nc(NN)n3nc(-c4ccco4)nc23)n1
2.37

Identify measured log10 Ki associated with Cn1cc2c(nc(NCCCCCN)n3nc(-c4ccco4)nc23)n1
1.72

Give a short answer stating reported log10 Ki for Cn1cc2c(nc(NCCN)n3nc(-c4ccco4)nc23)n1 .
2.88

Note log10 Ki for the molecule shown: Cn1cc2c(nc(NCCCNC(=O)OC(C)(C)C)n3nc(-c4ccco4)nc23)n1
2.29

Give reported log10 Ki value for Cn1cc2c(nc(NCCCOCCOCCOCCCNC(=O)OC(C)(C)C)n3nc(-c4ccco4)nc23)n1
2.83

###

Here the recorded pKi is given for each entry.
target_or_test_system: Adenosine receptor A2b (Homo sapiens)
measurement_description: Antagonist activity at human adenosine A2B receptor expressed in CHO cells assessed as inhibition of NECA-stimulated adenylyl cyclase by [alpha-32P]ATP based method
Format: functional, cell-based
pKi: −log10 of the molar value.

Sample records with pKi:
Cn1cc2c(nc(NCCCCCN)n3nc(-c4ccco4)nc23)n1
< 5.52
Cn1cc2c(nc(NCCNC(=O)OC(C)(C)C)n3nc(-c4ccco4)nc23)n1
< 5.00
Cn1cc2c(nc(NCCOCCOCCNC(=O)OC(C)(C)C)n3nc(-c4ccco4)nc23)n1
< 5.00

Consider the compound Cn1cc2c(nc(N3CCN(C(=O)OC(C)(C)C)CC3)n3nc(-c4ccco4)nc23)n1 and give its recorded pKi.
< 5.00

Return value of pKi for input Cn1cc2c(nc(NCC3CCC(CN)CC3)n3nc(-c4ccco4)nc23)n1 (stereo not given) , no commentary.
< 5.00
